System: TRZAWR (Wheat, Winter, cv Riband)
Test: Preemergence herbicidal evaluation
Assay type: in vivo, Triticum aestivum
Conditions: rate 0.0625 kg/ha; rated 4-5 weeks after treatment
Exercise: for every item that follows, state its recorded Preemergence herbicidal rating TRZAWR.
Enter a number only.

Incoming: Supply recorded Preemergence herbicidal rating TRZAWR for CCOC(=O)CN1C(=O)C(C(=O)OC)SC1=Nc1cc(-n2c(=O)cc(C(F)(F)F)n(C)c2=O)c(F)cc1Cl (stereo not shown) [Compound 128] here.
Outgoing: 0.0

Incoming: Supply recorded Preemergence herbicidal rating TRZAWR for CN1C(=O)C(CC(=O)O)SC1=Nc1cc(-n2c(=O)cc(C(F)(F)F)n(C)c2=O)c(F)cc1Cl (stereo not shown) [Compound 63] here.
Outgoing: 1.0

Incoming: Supply recorded Preemergence herbicidal rating TRZAWR for CC(C)OC(=O)CN1C(=O)CSC1=Nc1cc(-n2c(=O)cc(C(F)(F)F)n(C)c2=O)c(F)cc1Cl [Compound 110] here.
Outgoing: 1.0

Incoming: Supply recorded Preemergence herbicidal rating TRZAWR for C=CCN1C(=O)C(CC(=O)OC)SC1=Nc1cc(-n2c(=O)cc(C(F)(F)F)n(C)c2=O)c(F)cc1Cl (stereo not shown) [Compound 64] here.
Outgoing: 1.0

Origin of measurements: patent US20020137929A1
